system: Candida albicans; assay: Antifungal activity against Candida albicans ATCC 10231 by microdilution method; format: functional
Calls of active or inactive are those of the source. The rule behind the calls is not given here.
reportedEndpoint: MIC

Known MIC results, listed for orientation:
Quick check: MIC on Candida albicans, item C[C@H]1COc2c(N3CCN(C)CC3)c(F)cc3c(=O)c(C(=O)O)cn1c23.C[C@H]1COc2c(N3CCN(C)CC3)c(F)cc3c(=O)c(C(=O)O)cn1c23.O [LEVOFLOXACIN] ?
inactive

Quick check: MIC on Candida albicans, item CC(=O)N1CCN(c2ccc(OCC3COC(Cn4ccnc4)(c4ccc(Cl)cc4Cl)O3)cc2)CC1 (stereo not given) [KETOCONAZOLE] ?
1 µg/mL

Quick check: MIC on Candida albicans, item O=c1cc(CCl)oc(CN2CCN(c3ccccc3F)CC2)c1O ?
8 µg/mL

Quick check: MIC on Candida albicans, item O=c1cc(CCl)oc(CN2CCN(c3ccc(F)cc3)CC2)c1O ?
8 µg/mL

Quick check: MIC on Candida albicans, item O=c1cc(CCl)oc(CN2CCN(c3ccccc3Cl)CC2)c1O ?
16 µg/mL

Quick check: MIC on Candida albicans, item OC(Cn1cncn1)(Cn1cncn1)c1ccc(F)cc1F [FLUCONAZOLE] ?
2 µg/mL

Quick check: MIC on Candida albicans, item O=c1cc(CCl)oc(CN2CCN(c3ccc(Cl)cc3)CC2)c1O ?
16 µg/mL

Quick check: MIC on Candida albicans, item CC1COc2c(N3CCN(C)CC3)c(F)cc3c(=O)c(C(=O)O)cn1c23 (stereo not given) [OFLOXACIN] ?
inactive

Quick check: MIC on Candida albicans, item COc1ccc(N2CCN(Cc3oc(CCl)cc(=O)c3O)CC2)cc1 ?
8 µg/mL

Here is the next item to consider.
Quick check: MIC on Candida albicans, item COc1cccc(N2CCN(Cc3oc(CCl)cc(=O)c3O)CC2)c1 ?
8 µg/mL

----------
system: Escherichia coli; assay: Antibacterial activity against ESbetaL positive trimethoprim-sulfamethoxazole, cefepime, tazobactam-resistant Escherichia coli isolate by microdilution method; type: functional
reportedEndpoint: MIC

Dear colleague, I am looking for the recorded MIC of the following molecule: O=c1cc(CCl)oc(CN2CCN(c3cccc(C(F)(F)F)c3)CC2)c1O
64 µg/mL

Dear colleague, I am looking for the recorded MIC of the following molecule: O=c1cc(CCl)oc(CN2CCN(c3cccc(Cl)c3)CC2)c1O
64 µg/mL

Dear colleague, I am looking for the recorded MIC of the following molecule: O=c1cc(CCl)oc(CN2CCN(c3ccccc3Cl)CC2)c1O
> 128 µg/mL

Dear colleague, I am looking for the recorded MIC of the following molecule: COc1ccccc1N1CCN(Cc2oc(CCl)cc(=O)c2O)CC1
64 µg/mL

Dear colleague, I am looking for the recorded MIC of the following molecule: COc1cccc(N2CCN(Cc3oc(CCl)cc(=O)c3O)CC2)c1
64 µg/mL

Here is the next item to consider.
Dear colleague, I am looking for the recorded MIC of the following molecule: O=c1cc(CCl)oc(CN2CCN(c3ccc(Cl)cc3)CC2)c1O
> 128 µg/mL

----------
Property: MIC; scope: individual compounds
test system: Candida parapsilosis; assay: Antifungal activity against Candida parapsilosis ATCC 22019 by microdilution method; format: functional; conditions: Lodderomyces parapsilosis
Quick note: give the figure in µg/mL, leave out the unit.

Known MIC results, listed for orientation:
Dear colleague, I am looking for the recorded MIC of the following compound: COc1cccc(N2CCN(Cc3oc(CCl)cc(=O)c3O)CC2)c1
8

Dear colleague, I am looking for the recorded MIC of the following compound: CC(=O)N1CCN(c2ccc(OCC3COC(Cn4ccnc4)(c4ccc(Cl)cc4Cl)O3)cc2)CC1 (stereo not drawn)
1

Dear colleague, I am looking for the recorded MIC of the following compound: COc1ccccc1N1CCN(Cc2oc(CCl)cc(=O)c2O)CC1
8

Dear colleague, I am looking for the recorded MIC of the following compound: O=c1cc(CCl)oc(CN2CCN(c3cccc(Cl)c3)CC2)c1O
16

Here is the next item to consider.
Dear colleague, I am looking for the recorded MIC of the following compound: O=c1cc(CCl)oc(CN2CCN(c3ccc(Cl)c(Cl)c3)CC2)c1O
16
